Numbers sourced from the supplement of paper PMC10567573.

# Test method notes: protein stability index of a GFP-peptide fusion (GPS, HEK-293T) (PSI 1-6); higher = more stable;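 note: 24-mer peptide tiles fused after GFP, lentivirally expressed, FACS-sorted into six equal bins by GFP/DsRed ratio, decoded by Illumina sequencing, PSI is the read-weighted mean bin number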
# Recorded conditions: treatment: MLN4924 1 uM, 8 h; c terminus: a fixed tail appended
Recorded endpoint: protein stability index
Reply with the value as a number alone.

Query block: So what does the record say about protein stability index for QAQGQLRELLDRAMREAIQSYPSQ [SOAT2] ?
Result block: 3.11

Query block: Same for RDRDGRITVAELREAVPALLGEPL [CABP4]
Result block: 3.95

Query block: Same for IGLRLVLEYLYTANVTLSLDTVEE [KLHL14]
Result block: 3.02

Query block: Same for QIGFSVGLGNIWRFPYLCQKNGGG [SLC6A17]
Result block: 1.9

Query block: Same for IHPKNPHAPTIHFNYRYFEVEEAD [CPOX]
Result block: 3.88

Query block: Same for EMMSQALKATFSGFTKEQQRLGIP [ETS1]
Result block: 2.49

Query block: Same for STFIRRYSRYLNEKAFSYRQMAFD [SNAP91]
Result block: 2.22

Query block: Same for LRRELELLGRERDRVQVERDGLAE [PRPH]
Result block: 4.8

Query block: Same for MGPAQEAPVAEAWIPQAGPPELNY [ZNF449]
Result block: 4.51

Query block: Same for RLKKQLRAAQLQHSEKMAQYLEEE [CCDC6]
Result block: 4.11

Query block: Same for GRSWPSAPDDSKAQAHRIHIDPEI [PDLIM4]
Result block: 4.31

Query block: Same for GAMLGQTTSEEAVGGATPDQTTSE [HDAC6]
Result block: 5.59

Query block: Same for RPLQVNTADHRIYSYVVSRPQPRG [FAF2]
Result block: 3.49

###

# Test method notes: protein stability index of a GFP-peptide fusion (GPS, HEK-293T) (PSI 1-6); higher = more stable
# Recorded conditions: treatment: MLN4924 1 uM, 8 h; c terminus: a fixed tail appended
# label = true if protein stability index >= 4 else false

Query block: State whether the measured protein stability index reaches 4, counting equality as reaching it, for WADAAGEAVPEGPDGGGPWLEDEP [ZSWIM9]
Result block: true

Query block: Same for GQLRVFGAGLLSSISELKHALSGH [TPH1]
Result block: false

Query block: Same for AKGASLFTCDLQHTETGEEVLRMC [VPS39]
Result block: false

Query block: Same for KRRANQKSSAQGPIPWFLPESRSL [PPEF2]
Result block: false

Query block: Same for GSSSSSSSSINSPDRASGPEGSLS [FAM104A]
Result block: true

Query block: Same for KGTFKDYVRDRADLNKDKPVIPAA [ETS1]
Result block: true

Query block: Same for VSPGSPPPPLPNHKYNTTSTSYSP [PLAGL1]
Result block: true

Query block: Same for TSSSTSGSSDKVYAHQMVRTDSRE [MLH1]
Result block: true

Query block: Same for LQQERQRLGQRQPPPSEPTQGPEI [DNAJC4]
Result block: true

Query block: Same for PVACGSVLSEGSPLTEQEESSPSH [SRPK2]
Result block: true

Query block: Same for APDKTSTVLTRHSQPATPTPLQSR [PDLIM7]
Result block: true

Query block: Same for PPELNYGATGECQNFLDPGYPLPK [ZNF449]
Result block: true
